The measurements presented in this section are drawn from ChEMBL document CHEMBL4376846.

pIC50: −log10 of the molar value.
Notes on pIC50 obtained with Genome polyprotein (dengue virus type 2).
Sequence (P29990 1346-1475 limits assumed): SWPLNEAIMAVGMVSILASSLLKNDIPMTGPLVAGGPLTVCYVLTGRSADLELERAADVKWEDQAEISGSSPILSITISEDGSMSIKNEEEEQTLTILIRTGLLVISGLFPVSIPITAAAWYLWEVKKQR
Sequence (P29990 1476-2093 limits assumed): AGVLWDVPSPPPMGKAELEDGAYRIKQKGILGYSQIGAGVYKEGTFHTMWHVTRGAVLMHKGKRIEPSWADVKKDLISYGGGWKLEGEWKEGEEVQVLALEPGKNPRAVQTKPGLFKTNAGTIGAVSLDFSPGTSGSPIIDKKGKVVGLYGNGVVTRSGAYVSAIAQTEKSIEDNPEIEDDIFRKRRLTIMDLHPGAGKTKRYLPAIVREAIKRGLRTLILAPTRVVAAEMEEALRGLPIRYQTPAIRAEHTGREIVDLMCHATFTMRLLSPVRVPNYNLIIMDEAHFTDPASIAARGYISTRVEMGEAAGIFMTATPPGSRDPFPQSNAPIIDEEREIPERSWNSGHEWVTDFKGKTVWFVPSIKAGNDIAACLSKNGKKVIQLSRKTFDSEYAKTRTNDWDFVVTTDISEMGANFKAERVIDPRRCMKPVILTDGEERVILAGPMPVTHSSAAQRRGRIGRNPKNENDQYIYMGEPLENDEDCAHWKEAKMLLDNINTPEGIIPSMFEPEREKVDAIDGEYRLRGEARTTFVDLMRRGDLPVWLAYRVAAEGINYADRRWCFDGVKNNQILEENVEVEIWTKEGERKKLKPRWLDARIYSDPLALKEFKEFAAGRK
recorded metric: pIC50

• Cc1ccc(N2C[C@@H](NC(=O)[C@H](NC(=O)[C@H](CCCCN)NC(=O)[C@H](CCCNC(=N)N)NC(=O)c3ccccc3)c3ccc(OCc4ccccc4)cc3)C2=O)cc1 = 4.80
• Cc1ccc(N2C[C@H](NC(=O)[C@H](NC(=O)[C@H](CCCCN)NC(=O)[C@H](CCCNC(=N)N)NC(=O)c3ccccc3)c3ccc(OCc4ccccc4)cc3)C2=O)cc1 = 5.57
• Cc1cccc(N2C[C@H](NC(=O)[C@H](NC(=O)[C@H](CCCCN)NC(=O)[C@H](CCCNC(=N)N)NC(=O)c3ccccc3)c3ccc(OCc4ccccc4)cc3)C2=O)c1 = 5.55
